Tested on: TTR
Experiment: EC50 and maximum editing in primary cyno hepatocytes treated with LNP formulated U-depleted Spy Cas9 mRNA and sgRNAs (Tables 20, 22)
Format: cell-based, cynomolgus monkey
Parameters: key: % of sequence reads with indels or substitutions over total reads
Details: Table 20, LNP with U-depleted Spy Cas9 mRNA and human specific sgRNAs, dose response
Strand notation (5' to 3'): a small letter for the sugar, then the base; units joined by * are phosphorothioate-linked, units joined directly phosphodiester-linked; [ ] holds rarer units or linkages, { } end groups; capitals alone tell only the bases. m = 2'-O-methyl; r = 2'-OH (RNA)
measured.quantity: Max Editing
Numbers only.

Illustrative cases are given below, each with its answer.
Query G000500: TTR sgRNA modified sequence, Human, SEQ ID No. 107; guide sequence of CR003337 (nucleic acid) guide: mC*mC*mA*rGrUrCrCrArGrCrArArGrGrCrArGrArGrGrGrUrUrUrUrArGrAmGmCmUmAmGmAmAmAmUmAmGmCrArArGrUrUrArArArArUrArArGrGrCrUrArGrUrCrCrGrUrUrArUrCrAmAmCmUmUmGmAmAmAmAmAmGmUmGmGmCmAmCmCmGmAmGmUmCmGmGmUmGmCmU*mU*mU*mU yields Max Editing of 58.04

Query G000494: TTR sgRNA modified sequence, Human, SEQ ID No. 101; guide sequence of CR003360 (nucleic acid) guide: mG*mU*mG*rArGrUrCrUrGrGrArGrArGrCrUrGrCrArUrGrUrUrUrUrArGrAmGmCmUmAmGmAmAmAmUmAmGmCrArArGrUrUrArArArArUrArArGrGrCrUrArGrUrCrCrGrUrUrArUrCrAmAmCmUmUmGmAmAmAmAmAmGmUmGmGmCmAmCmCmGmAmGmUmCmGmGmUmGmCmU*mU*mU*mU yields Max Editing of 60.84

Query G000489: TTR sgRNA modified sequence, Human, SEQ ID No. 96; guide sequence of CR003344 (nucleic acid) guide: mU*mU*mU*rGrArCrCrArUrCrArGrArGrGrArCrArCrUrGrUrUrUrUrArGrAmGmCmUmAmGmAmAmAmUmAmGmCrArArGrUrUrArArArArUrArArGrGrCrUrArGrUrCrCrGrUrUrArUrCrAmAmCmUmUmGmAmAmAmAmAmGmUmGmGmCmAmCmCmGmAmGmUmCmGmGmUmGmCmU*mU*mU*mU yields Max Editing of 89.21

Query G000483: TTR sgRNA modified sequence, Human, SEQ ID No. 90; guide sequence of CR005298 (nucleic acid) guide: mU*mC*mC*rArCrUrCrArUrUrCrUrUrGrGrCrArGrGrArGrUrUrUrUrArGrAmGmCmUmAmGmAmAmAmUmAmGmCrArArGrUrUrArArArArUrArArGrGrCrUrArGrUrCrCrGrUrUrArUrCrAmAmCmUmUmGmAmAmAmAmAmGmUmGmGmCmAmCmCmGmAmGmUmCmGmGmUmGmCmU*mU*mU*mU yields Max Editing of 56.52

Query G000484: TTR sgRNA modified sequence, Human, SEQ ID No. 91; guide sequence of CR003367 (nucleic acid) guide: mA*mG*mA*rCrArCrCrArArArUrCrUrUrArCrUrGrGrArGrUrUrUrUrArGrAmGmCmUmAmGmAmAmAmUmAmGmCrArArGrUrUrArArArArUrArArGrGrCrUrArGrUrCrCrGrUrUrArUrCrAmAmCmUmUmGmAmAmAmAmAmGmUmGmGmCmAmCmCmGmAmGmUmCmGmGmUmGmCmU*mU*mU*mU yields Max Editing of 0.22

Next:
Query G000482: TTR sgRNA modified sequence, Human, SEQ ID No. 89; guide sequence of CR003365 (nucleic acid) guide: mU*mG*mU*rArGrArArGrGrGrArUrArUrArCrArArArGrGrUrUrUrUrArGrAmGmCmUmAmGmAmAmAmUmAmGmCrArArGrUrUrArArArArUrArArGrGrCrUrArGrUrCrCrGrUrUrArUrCrAmAmCmUmUmGmAmAmAmAmAmGmUmGmGmCmAmCmCmGmAmGmUmCmGmGmUmGmCmU*mU*mU*mU yields Max Editing of 97.47
